# maps each entry to its IC50
Biological target: IDO (Homo sapiens)
Sequence (P14902 whole entry): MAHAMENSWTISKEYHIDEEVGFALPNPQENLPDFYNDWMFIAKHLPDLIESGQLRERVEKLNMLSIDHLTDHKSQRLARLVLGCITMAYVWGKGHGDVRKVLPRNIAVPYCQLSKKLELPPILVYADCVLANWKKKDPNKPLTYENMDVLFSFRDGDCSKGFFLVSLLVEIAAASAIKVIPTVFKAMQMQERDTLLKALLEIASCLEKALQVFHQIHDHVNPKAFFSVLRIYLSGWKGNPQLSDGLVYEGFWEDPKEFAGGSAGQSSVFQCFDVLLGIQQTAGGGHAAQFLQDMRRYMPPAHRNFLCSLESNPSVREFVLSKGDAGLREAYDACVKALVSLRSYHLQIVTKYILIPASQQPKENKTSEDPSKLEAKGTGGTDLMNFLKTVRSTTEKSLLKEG
Experiment: LLE_IDO_ABS_DR (IDO assay)
QUANTITY_KIND: IC50 (nM)

* C#Cc1ccc(NC(=O)Nc2cc(-c3ccccc3-c3nnn[nH]3)ccc2N(CC(C)C)CC(C)C)cc1 [Example 278] | 1.31
* Cc1ccc(NC(=O)Nc2c(N(CC(C)C)CC(C)C)ccc(-c3ccccc3-c3nnn[nH]3)c2F)cc1 [Example 25] | 30
* Cc1ccc(NC(=O)Nc2cc(-c3ccccc3C(=O)O)ccc2N(CCC(F)(F)F)Cc2ccc(Cl)cc2)cc1 [Example 14] | 80
* CCCN(c1ccc(-c2ccccc2-c2nnn[nH]2)cc1NC(=O)Nc1ccc(C)cc1)C1CCCC1 [Example 169] | 4.55

----------
# IC50 values compiled below
Target: IDO (Homo sapiens)
Experiment: LLE_IDO_ABS_DR (IDO assay)
QUANTITY_KIND: IC50 (nM)

* Cc1cc(NC(=O)Nc2cc(-c3ccccc3-c3nnn[nH]3)ccc2N2CCC(c3ccccc3)C2)on1 (racemic) | 1940
* O=C(Nc1cc(-c2ccccc2-c2nnn[nH]2)ccc1N(CCC(F)(F)F)Cc1ccc(F)cc1C(F)(F)F)Nc1ccccc1C(F)(F)F | 490
* Cc1cccc(NC(=O)Nc2cc(-c3ccccc3-c3nnn[nH]3)ccc2N(C)C2CCCCC2)c1 | 490
* CC(C)CN(CC(C)C)c1ccc(-c2ccccc2-c2nnn[nH]2)cc1NC(=O)Nc1cccc(-n2ccnc2)c1 | 1460

----------
Quick reference: IC50 of the listed items.
Target: IDO (Homo sapiens)
Test: Kynurenine assay in Hela cells stimulated with IFN-γ to express IDO
Type: cell-based
Design: endogenous in cells; host or cells: HeLa (ATCC CCL-2), stimulated with human recombinant IFN-gamma
Conditions: 20 h, read-out: Hela Kyurenine (IC50)
Experimental: IFNg (R&D, 28-IF-100)—resuspend at 10 ug/mL in PBS with 0.1% BSA 30% TCA Ehrlich reagent (2% w/v p-dimethylaminobenzaldehyde in glacial acetic acid) Cell Titer 96 Aqueous Non-Radioactive Cell Proliferation Assay, MTS (Promega, Cat # G5430) Cell Lines and Culture Conditions […] Hela cells were seeded on 96-well plates (40,000 cells per well) and allowed to adhere for 5-6 hours. […] Absorbance at 490 nm was read using Spectra Max 384 (Molecular Devices).
QUANTITY_KIND: IC50 (nM)

• Cc1ccc(NC(=O)Nc2cc(-c3ccccc3C(=O)O)ccc2N2CCC[C@@H]3CCCC[C@@H]32)cc1 = 180
• CN(c1ccc(-c2ccccc2C(=O)O)cc1NC(=O)Nc1ccccc1)C1CCCCC1 = 90
• COc1ccc(-c2cc(NC(=O)Nc3ccc(C)cc3)c(N(C)C3CCCCC3)cc2F)cc1C(=O)O = 440
• Cc1ccc(NC(=O)Nc2cc(-c3ccccc3-c3nnn[nH]3)ccc2N(C)C2CCCC2)cc1 = 10
• COc1ccc(-c2ccc(N(C)C3CCCCC3)c(NC(=O)Nc3ccc(C)cc3)c2)cc1C(=O)O = 1430
• Cc1ccc(NC(=O)Nc2cc(-c3ccccc3-c3nnn[nH]3)ccc2N(CC(C)C)CC(C)C)cc1 = 1.37
• COCCN(CCOC)c1ccc(-c2ccccc2-c2nnn[nH]2)cc1NC(=O)Nc1ccc(C)cc1 = 220
• Cc1ccc(NC(=O)Nc2cc(-c3ccccc3-c3nnn[nH]3)ccc2N2CCC[C@@H]3CCCC[C@@H]32)cc1 = 10
• Cc1ccc(NC(=O)Nc2cc(-c3ccccc3C(=O)O)ccc2N(C)C2CCOCC2)cc1 = 2130
• Cc1ccc(NC(=O)Nc2cc(-c3ccccc3C(=O)O)ccc2NC2CCCCC2)cc1 = 850
• Cc1ccc(NC(=O)Nc2cc(-c3ccccc3C(=O)O)ccc2N(CC(C)C)CC(C)C)cc1 = 5.57
• Cc1ccc(NC(=O)Nc2cc(-c3ccccc3C(=O)O)ccc2N(CC(F)F)CC2CC2)cc1 = 700
• COc1ccc(-c2ccc(N(CC(F)F)CC3CC3)c(NC(=O)Nc3ccc(C)cc3)c2)cc1C(=O)O = 2280
• Cc1ccc(NC(=O)Nc2cc(-c3ccccc3-c3nnn[nH]3)ccc2N(C)C2CCCCC2)cc1 = 1.72
• Cc1ccc(NC(=O)Nc2cc(-c3ccccc3-c3nnn[nH]3)ccc2N(CC(F)F)CC2CC2)cc1 = 140
• COc1ccc(-c2ccc(N(C)C3CCCCC3)c(NC(=O)Nc3ccccc3Cl)c2)cc1C(=O)O = 1170

----------
The reader will find reported IC50 values listed item by item below.
Target: IDO (Homo sapiens)
Assay: LLE_IDO_ABS_DR (IDO assay)
QUANTITY_KIND: IC50 (nM)

* Cc1ccc(NC(=O)Nc2cc(-c3ccccc3C(=O)O)ccc2N(CCC(F)(F)F)CC(C)C)cc1 | 210
* CC(C)CN(c1ccc(-c2ccccc2-c2nnn[nH]2)cc1NC(=O)Nc1ccc(F)cc1F)C(C)C | 7.45
* CCCCN(CCCC)c1ccc(-c2cc(F)ccc2C(=O)O)cc1NC(=O)Nc1ccc(C)cc1 | 10
* Cc1ccc(NC(=O)Nc2cc(-c3ccccc3-c3nnn[nH]3)ccc2NC2CCCCC2)cc1 | 130
* Cc1ccc(NC(=O)Nc2cc(-c3ccccc3NS(=O)(=O)CC(F)(F)F)ccc2N(CC(C)C)CC(C)C)cc1 | 2110
* CC(C)CN(Cc1ccccc1)c1ccc(-c2ccccc2-c2nnn[nH]2)cc1NC(=O)Nc1ccc(OC(F)(F)F)cc1 | 30
* CCCN(CC1CC1)c1ccc(-c2ccccc2-c2nnn[nH]2)cc1NC(=O)Nc1ccc(C)cc1 | 20
* CC(C)CN(CCC1CC1)c1ccc(-c2ccccc2-c2nnn[nH]2)cc1NC(=O)Nc1ccccc1F | 6.45
* O=C(Nc1ccc(OC(F)(F)F)cc1)Nc1cc(-c2ccccc2-c2nnn[nH]2)ccc1N(CCC(F)(F)F)Cc1ccccn1 | 230
* O=C(Nc1ccc(C2CC2)cc1)Nc1cc(-c2ccccc2-c2nnn[nH]2)ccc1N(CCC(F)(F)F)Cc1ccc(OC(F)(F)F)cc1 | 3.26
* Cc1ccc(NC(=O)Nc2cc(-c3cnccc3C(=O)O)ccc2N(CC(C)C)CC(C)C)cc1 | 4620
* Cc1ccc(NC(=O)Nc2cc(-c3ccccc3-c3nnn[nH]3)ccc2N(CC(F)F)C2CCCCC2)cc1 | 4.74
* CN(c1ccc(-c2ccccc2-c2nnn[nH]2)cc1NC(=O)Nc1ccc(C(F)(F)F)cc1)C1CCCCC1 | 90
* CC(C)CN(CC(C)C)c1ccc(-c2ccccc2-c2nnn[nH]2)cc1NC(=O)Nc1ccccc1-n1cncn1 | 4180
* O=C(Nc1ccc(C2CC2)cc1)Nc1cc(-c2ccccc2-c2nn[nH]n2)ccc1N1CC2CC1CN2Cc1ccccc1 (stereo not drawn) | 10

----------
Target: Human IDO1 (Homo sapiens)
Sequence (P14902 whole entry): as above
Test: IDO Kynurenine Assay with Human IDO1/HEK293 Cells
Details: read-out: HEK human IDO-1 (IC50)
Protocol: IDO Kynurenine Assay with Human IDO1/HEK293 Cells […] The compound treatments were stopped by adding Trichloroacetic Acid (Sigma-Aldrich) to a final concentration at 0.2%. […] The absorbance at 490 nm was measured on Envision plate reader. […]
pIC50: −log10 of the molar value.
# pIC50 listing for each entry below
QUANTITY_KIND: pIC50

- Cc1ccc(NC(=O)Nc2cc(-c3cc(F)ccc3-c3nnn[nH]3)ccc2N(CC(C)C)CC(C)C)cc1: 8.13
- COCCN(Cc1ccc(Cl)cc1)c1ccc(-c2cc(F)ccc2C(=O)O)cc1NC(=O)Nc1ccc(C)cc1: 7.15
- CC(C)CN(c1ccc(-c2cc(F)ccc2C(=O)O)cc1NC(=O)Nc1ccc2nccn2c1)C1CCCCC1: 5.51
- CCC(CC)N(CC(C)C)c1ccc(-c2ccccc2C(=O)O)cc1NC(=O)Nc1ccccc1F: 8.81

----------
Biological target: UniProt:P14902
Assay: LLE_IDO_ABS_DR (IDO assay)
QUANTITY_KIND: log10 IC50 (log10 of the value in nM)

* Cc1ccc(NC(=O)Nc2cc(-c3ccccc3-c3nnn[nH]3)cc(F)c2N(CC(C)C)CC(C)C)cc1 [Example 5] | 0.61
* CC(C)CN(CCC(C)C(F)(F)F)c1ccc(-c2cc(F)ccc2C(=O)O)cc1NC(=O)Nc1ccccc1F (stereo not drawn) [Example 204] | 0.72
* C#CCN(CC(C)C)c1ccc(-c2cc(F)ccc2C(=O)O)cc1NC(=O)Nc1ccc(C)cc1 [Example 23] | 2.65
* CCCN(c1ccc(-c2cc(F)ccc2C(=O)O)cc1NC(=O)Nc1ccc(C)cc1)C1CCCC1 [Example 166] | 1.30
* Cc1ccc(NC(=O)Nc2cc(-c3ccccc3-c3nnn[nH]3)ccc2N(Cc2ccccc2)CC(C)C)cc1 [Example 292] | 0.61
* Cc1ccc(NC(=O)Nc2cc(-c3cc(F)ccc3C(=O)O)ccc2N(CCC2CC2)CC(C)C)cc1 [Example 130] | 1.60
* COCCN(CCOC)c1ccc(-c2ccccc2C(=O)O)cc1NC(=O)Nc1ccc(C)cc1 [Example 56] | 3.56
* CC(C)CN(CC(C)C)c1ccc(-c2ccccc2-c2nnn[nH]2)cc1NC(=O)Nc1nncs1 [Example 145] | 1.90
* Cc1ccc(NC(=O)Nc2cc(-c3ccccc3C(=O)O)ccc2N(C)C2CCCCC2)cc1 [Example 213] | 1.00
* Cc1ccc(NC(=O)Nc2cc(-c3ccccc3C(=O)O)ccc2N(CC(F)F)CC2CC2)cc1 [Example 61] | 2.71
* CC(C)CN(CC(C)C)c1ccc(-c2ccccc2-c2nnn[nH]2)cc1NC(=O)Nc1ccc(S(C)(=O)=O)cc1F [Example 284] | 3.32
* CC(C)CN(CC(C)C)c1ccc(-c2ccccc2-c2nnn[nH]2)cc1NC(=O)Nc1cccc(S(N)(=O)=O)c1 [Example 266] | 3.65
* Cc1ccc(NC(=O)Nc2cc(-c3ccccc3-c3nnn[nH]3)ccc2N(CC(C)C)C2CCCC2)cc1 [Example 174] | 1.00
* Cc1ccc(NC(=O)Nc2cc(-c3ccc(Cl)cc3C(=O)O)ccc2N(CC(C)C)C2CCCCC2)cc1 [Example 120] | 1.48
* Cc1ccc(NC(=O)Nc2cc(-c3ccccc3C(=O)O)ccc2N(CC(C)C)C2CCCCC2)cc1 [Example 119] | 0.72
* [2H]C([2H])(C(C)C)N(c1ccc(-c2ccccc2C(=O)O)cc1NC(=O)Nc1ccccc1F)C1CCCCC1 [Example 33] | 0.70
* Cc1noc(C2CCN(c3ccc(-c4ccccc4-c4nnn[nH]4)cc3NC(=O)Nc3ccc(C(F)(F)F)cc3F)C2)n1 (stereo not drawn) [Example 390] | 3.20
* Cc1ccc(NC(=O)Nc2cc(-c3ccccc3-c3nnn[nH]3)ccc2N2CCC(c3ccccc3)C2)cn1 (racemic) [Example 368] | 3.40
* CC(C)CN(c1ccc(-c2ccccc2-c2nnn[nH]2)cc1NC(=O)Nc1ccccc1F)C1CCCC1 [Example 175] | 0.64
* CC(C)CN(CC(C)C)c1ccc(-c2ccccc2-c2nnn[nH]2)cc1NC(=O)Nc1cccc(N=[N+]=[N-])c1 [Example 257] | 0.44
* O=C(Nc1ccc(C(F)(F)F)cc1F)Nc1cc(-c2ccccc2-c2nnn[nH]2)ccc1N1CCCc2ccccc21 [Example 364] | 3.67
* O=C(Nc1ccc(F)cc1F)Nc1cc(-c2ccccc2-c2nnn[nH]2)ccc1N(CCCC(F)(F)F)Cc1ccc(Cl)cc1 [Example 319] | 1.30
* CCCN(c1ccc(-c2ccccc2C(=O)O)cc1NC(=O)Nc1ccc(C)cc1)C1CCCCC1 [Example 86] | 0.62
* CC(C)CN(CC(C)C)c1ccc(-c2ccccc2C(=O)O)cc1NC(=O)Nc1ccc(F)cc1F [Example 138] | 0.80
* CC(C)CN(CC(C)C)c1ccc(-c2ccccc2-c2nnn[nH]2)cc1NC(=O)NCC(C)(C)C [Example 141] | 2.63
* Cc1ccc(NC(=O)Nc2cc(-c3cc(F)ccc3C(=O)O)ccc2N(CC(C)C)CC(F)(F)F)cc1 [Example 476] | 2.15
* CCN(c1ccc(-c2ccc(OC)c(C(=O)O)c2)cc1NC(=O)Nc1ccc(C)cc1)C1CCCC1 [Example 77] | 3.51
* CC(C)CN(CCC1CC1)c1ccc(-c2sccc2C(=O)O)cc1NC(=O)Nc1ccccc1F [Example 136] | 1.85
* Cc1ccc(NC(=O)Nc2cc(-c3cc(F)ccc3C(=O)O)ccc2N(Cc2ccc(Cl)cc2)C2CCCCC2)cc1 [Example 469] | 2.86
* CC(C)CN(c1ccc(-c2cc(F)ccc2C(=O)O)cc1NC(=O)Nc1ccccc1F)C(C)C [Example 155] | 1.60
